Values compiled from paper PMC6328587.

- subject-of-test: p38α (Homo sapiens, UniProt Q16539)
- Construct: SJFα PROTAC (13-atom linker, amide attachment) selectively degrades p38α; endogenous in cells; host or cells: MDA-MB-231
- Sequence (Q16539 whole entry): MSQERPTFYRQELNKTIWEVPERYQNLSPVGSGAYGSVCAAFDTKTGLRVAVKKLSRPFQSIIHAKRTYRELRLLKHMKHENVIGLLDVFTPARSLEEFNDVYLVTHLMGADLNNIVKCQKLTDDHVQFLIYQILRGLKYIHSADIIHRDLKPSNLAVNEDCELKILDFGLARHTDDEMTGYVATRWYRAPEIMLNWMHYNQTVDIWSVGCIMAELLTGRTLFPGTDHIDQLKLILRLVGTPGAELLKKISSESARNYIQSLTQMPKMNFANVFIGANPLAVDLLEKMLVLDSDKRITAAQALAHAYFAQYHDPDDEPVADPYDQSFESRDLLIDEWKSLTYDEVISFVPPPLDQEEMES
- test-description: PROTAC-induced p38α degradation, western blot in MDA-MB-231 cells
- Format: cell-based
- experimental-parameters: 0.025-5.0 µM survey, biological duplicates, ± one s.d., Supplementary Table 1
measured-endpoint: DC50
Write the numeric value and follow it with the unit.

COc1cc2c(Oc3ccc(NC(=O)C4(C(=O)Nc5ccc(F)cc5)CC4)cc3F)ccnc2cc1OCCCOCCCOCCC(=O)N[C@H](C(=O)N1C[C@H](O)C[C@H]1C(=O)NCc1ccc(-c2scnc2C)cc1)C(C)(C)C | 230 nM
COc1cc2c(Oc3ccc(NC(=O)C4(C(=O)Nc5ccc(F)cc5)CC4)cc3F)ccnc2cc1OCCCCOCCCCOCC(=O)N[C@H](C(=O)N1C[C@H](O)C[C@H]1C(=O)NCc1ccc(-c2scnc2C)cc1)C(C)(C)C [SJFα] | 9.5 nM
COc1cc2c(Oc3ccc(NC(=O)C4(C(=O)Nc5ccc(F)cc5)CC4)cc3F)ccnc2cc1OCCCCOCCCCOc1cc(-c2scnc2C)ccc1CNC(=O)C1CC(O)CN1C(=O)C(C(C)C)N1Cc2ccccc2C1=O (stereo not drawn) [SJF-6677] | 127 nM
COc1cc2c(Oc3ccc(NC(=O)C4(C(=O)Nc5ccc(F)cc5)CC4)cc3F)ccnc2cc1OCCOCCOCCOc1cc(-c2scnc2C)ccc1CNC(=O)[C@@H]1C[C@@H](O)CN1C(=O)[C@H](C(C)C)N1Cc2ccccc2C1=O [SJFδ] | 45.9 nM
COc1cc2c(Oc3ccc(NC(=O)C4(C(=O)Nc5ccc(F)cc5)CC4)cc3F)ccnc2cc1OCCCOCCOCCCOc1cc(-c2scnc2C)ccc1CNC(=O)C1CC(O)CN1C(=O)C(C(C)C)N1Cc2ccccc2C1=O (stereo not drawn) [BES-4612] | 760 nM

Kindly review the next compound as well.
## Input Any idea what DC50 came out for COc1cc2c(Oc3ccc(NC(=O)C4(C(=O)Nc5ccc(F)cc5)CC4)cc3F)ccnc2cc1OCCCOCCCOCCCOc1cc(-c2scnc2C)ccc1CNC(=O)C1CC(O)CN1C(=O)C(C(C)C)N1Cc2ccccc2C1=O (stereo not drawn) [SJF-6685] on p38α (Homo sapiens, UniProt Q16539)?
## Output 304 nM
